Measured values drawn from the supplement of paper PMC10567573 for this set.

I'd appreciate it if you could supply protein stability index values for the items below.
B1: C8orf76 (parent)
chain: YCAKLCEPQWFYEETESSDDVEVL

Variants of: B1
test_summary: protein stability index of a GFP-peptide fusion (GPS, HEK-293T) (PSI 1-6); higher = more stable;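 also: lentivirally expressed fusions sorted by FACS into six bins by GFP to DsRed ratio, PSI derived from sequencing read proportions per bin multiplied by bin number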
study_conditions: c terminus: a fixed tail appended
Give bare numbers.

| mutation_label | protein stability index |
| --- | --- |
| A3K | 3.07 |
| T15C | 2.16 |
| Y1K | 4.66 |

I would be grateful if you could provide protein stability index for each of the following entries.
1. P8K
2. S18K
3. E7F
4. E22I
5. D19R
6. E22L
7. E7C

1.62
2.28
2.33
2.03
2
1.38
2.69
